Listed next: entries and their corresponding pEC50.
- System: EVSA-T (human breast carcinoma)
- assay-info: Anti-proliferative activity, Alamar Blue assay, EVSA-T
- Format: cell-based
- measurement-context: Homo sapiens, EVSA-T, 72 h, EVSA-T cell line, 72 hours, Alamar Blue; read-out: EVSA-T prolif
Structures can show the parent of a compound that is named as a salt.
Please keep in mind that pEC50 is minus log10 of the molar concentration; only the number is needed.

# molecule, pEC50
rows = [
    ("C[C@@H]1CN(CC(=O)N2CC(C)(C)c3ncc(Cc4ccc(F)cc4F)cc32)[C@@H](CN2C[C@H](C)N(C)CC2=O)CN1 [Example 98, dihydrochloride]", 8.46),
    ("C[C@@H]1CN(CC(=O)N2CC(C)(C)c3ncc(Cc4ccc(F)cc4F)cc32)[C@@H](CN2Cc3c(O)cccc3C2=O)CN1 [Example 118, dihydrochloride]", 8.19),
    ("C[C@@H]1CN(CC(=O)N2CC(C)(C)c3ncc(Cc4ccc(F)cc4)cc32)[C@@H](CN2C(=O)[C@@H]3CC[C@H]2C3)CN1 [Example 8, dihydrochloride]", 8.15),
    ("C[C@@H]1CC(=O)N(C[C@H]2CN[C@H](C)CN2CC(=O)N2CC(C)(C)c3ncc(Cc4ccc(F)cc4F)cc32)C1 [Example 70, dihydrochloride]", 8.49),
    ("C[C@@H]1CC(=O)N(C[C@H]2CN[C@H](C)CN2CC(=O)N2CC(C)(C)c3ncc(Cc4ccc(F)cc4)cc32)C1 [Example 16, dihydrochloride]", 8.22),
]

input: Looking for the measured pEC50 of C[C@@H]1CN(CC(=O)N2CC(C)(C)c3ncc(Cc4ccc(F)cc4)cc32)[C@@H](CN2CC(C)(C)CC2=O)CN1 [Example 1, dihydrochloride] , can you help?
output: 8.66

input: Looking for the measured pEC50 of CCCC(F)(F)c1cc2c(cn1)C(C)(C)CN2C(=O)CN1C[C@@H](C)NC[C@@H]1CN1C[C@H](C)CC1=O [Example 72, dihydrochloride] , can you help?
output: 7.57

input: Looking for the measured pEC50 of C[C@@H]1CN(CC(=O)N2CC(C)(C)c3ncc(Cc4ccc(F)cc4)cc32)[C@@H](CN2CC(C)(C)OC2=O)CN1 [Example 5, dihydrochloride] , can you help?
output: 8.21

====

- measured-target: BIR3 domain of human XIAP (residues 252-350) (Homo sapiens, UniProt P98170)
- Construct: BIR3 domain of human XIAP (residues 252-350); His-tag (cleaved yes); made in house; host or cells: Escherichia coli
- Sequence (P98170 252-350): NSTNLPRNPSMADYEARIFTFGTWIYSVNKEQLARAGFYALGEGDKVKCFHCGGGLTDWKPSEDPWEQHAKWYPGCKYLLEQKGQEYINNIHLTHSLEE
- assay-info: XIAP in vitro competitive displacement binding assay (fluorescence polarization)
- measurement-context: 1 h, percent inhibition (PI) at 0.04 μM; read-out: Xiap IC50 or PI μM
Structures can show the parent of a compound that is named as a salt.
Listed next: entries and their corresponding inhibition at 0.04 µM.
Provide the reading as a plain figure in %.

# molecule, measurement-kind, measurement-units, observed-measurement
rows = [
    ("C[C@@H]1CN(CC(=O)N2CC(C)(C)c3ncc(Cc4ccc(F)cc4)cc32)[C@@H](CN2CC(C)(C)OC2=O)CN1 [Example 5, dihydrochloride]", "inhibition at 0.04 µM", "%", 44),
    ("C[C@@H]1CN(CC(=O)N2CC(C)(C)c3cnc(Cc4ccc(F)cc4)cc32)[C@@H](CN2Cc3ncccc3C2=O)CN1 [Example 20, dihydrochloride]", "inhibition at 0.04 µM", "%", 76),
    ("C[C@@H]1CN(CC(=O)N2CC(C)(C)c3ncc(Cc4ccc(F)cc4F)cc32)[C@@H](CN2C[C@H](C)N(C)CC2=O)CN1 [Example 98, dihydrochloride]", "inhibition at 0.04 µM", "%", 39),
    ("CCCC(F)(F)c1cc2c(nn1)C(C)(C)CN2C(=O)CN1C[C@@H](C)NC[C@@H]1CN1Cc2ccc(F)cc2C1=O [Example 99, dihydrochloride]", "inhibition at 0.04 µM", "%", 65),
]

input: Looking for the measured inhibition at 0.04 µM of C[C@@H]1CN(CC(=O)N2CC(C)(C)c3ncc(Cc4ccc(F)cc4F)cc32)[C@@H](CN2C[C@H](C)OCC2=O)CN1 (single isomer, unassigned) [Example 23, dihydrochloride] , can you help?
output: 64
